Parameter: cytotoxicity at 10 µM. Scope: all listed entries.
Test: Toxicity liver stage against HepG2, at 10uM
Format: cell-based
Design: test concentration 10 uM, cell line HepG2-A16-CD81EGFP
Conditions: human, HepG2-A16-CD81EGFP cells; read-out: INHIBITION
Provide only the numeric value, understood in %.

Some compounds with recorded cytotoxicity at 10 µM:
Challenge: Suppose we examine the compound CC(C)n1cnc2c1C(C(=O)N1CCOCC1)N(CC1CC1)CC2 (stereo not given) ; what cytotoxicity at 10 µM value has been reported?
Response given: 7.98

Challenge: Subsequent entry: Cc1ccccc1C(=O)N1CCC(n2nnc3cc(F)ccc32)CC1
Response given: 3.94

Challenge: Subsequent entry: COCC(=O)N(Cc1ccc2[nH]ccc2c1)C1CC1
Response given: -2.46

Challenge: Subsequent entry: CCc1ccc(CN2CCC3(CC2)C(=O)N(C)CCN3CC2CC2)cc1
Response given: 5.68

Challenge: Subsequent entry: CC(Cn1ccnc1)NC(=O)N(C)Cc1ccc2c(c1)OCO2 (stereo not given)
Response given: -16.1

---
Challenge: Suppose we examine the compound CC1c2ncc(COCc3ccccn3)n2CCN1C1CCCC1 (stereo not given) ; what cytotoxicity at 10 µM value has been reported?
Response given: 12.8

Challenge: Subsequent entry: O=C(c1cc(C2CC2)nc2onc(-c3ccccc3)c12)N1CCOCC1
Response given: -40.5

Challenge: Subsequent entry: CNC(=O)C1CN(Cc2cc(C)on2)CCN(C2CCOCC2)C1 (stereo not given)
Response given: 9.81

Challenge: Subsequent entry: CSc1cccc(NC(=O)N2CCCC(CNC(=O)c3ccco3)C2)c1 (stereo not given)
Response given: -2.4

Challenge: Subsequent entry: CN(C)C(=O)c1ccc(CNC(=O)NCCN(C)C2CCCC2)cc1
Response given: -5.58

Challenge: Subsequent entry: Cc1[nH]c2c(C)ccc(C)c2c1CC(=O)NCCNc1cccnc1
Response given: 0.393

Challenge: Subsequent entry: CCO[C@@H]1CC[C@H]2[C@H]1OCCN2Cc1ccc(F)cc1
Response given: 10.3

Challenge: Subsequent entry: O=C(O)CNc1cc(-c2cc(C3CC3)ncn2)c2cc[nH]c2n1
Response given: 7.69

Challenge: Subsequent entry: Cc1cc(C2CCCN2C(=O)NCc2c(C)cc(C)[nH]c2=O)on1 (stereo not given)
Response given: -9.54

Challenge: Subsequent entry: CCN(Cc1ccc(CN(C)C)cc1)C(=O)c1ccncc1O
Response given: -7.19

Challenge: Subsequent entry: CC1CCCN(Cc2coc(-c3cccc(F)c3)n2)C1 (stereo not given)
Response given: -16.7

Challenge: Subsequent entry: CC(=O)Nc1cc(C(=O)Nc2cc(CC(C)(C)C)nn2C)ccc1F
Response given: 0.388

Challenge: Subsequent entry: Cc1cc(C)c2nc(CN3CCCC(c4cc[nH]n4)C3)cc(O)c2c1 (stereo not given)
Response given: -3.97

Challenge: Subsequent entry: COc1c(CNC2CCN(C(C)(C)C)CC2)c(C(C)C)nn1C
Response given: -10.9

Challenge: Subsequent entry: CN(Cc1ccncc1)C(CO)c1cccc(Br)c1 (stereo not given)
Response given: 15.4

====

Experiment: Toxicity liver stage against HepG2, at 10uM
Assay type: cell-based
Design: test concentration 10 uM, cell line HepG2-A16-CD81EGFP
Conditions: human, HepG2-A16-CD81EGFP cells; read-out: INHIBITION
readoutLabel: cytotoxicity at 10 µM (%)
Provide only the numeric value, understood in %.

Challenge: Suppose we examine the compound CC(=O)N1CCCN(C(=O)c2cnc3n[nH]c(C)c3c2)CC1 ; what cytotoxicity at 10 µM value has been reported?
Response given: -5.85

Challenge: Subsequent entry: CC(C)c1nnc(NCc2cc3n(n2)CCN(C2CCCCC2)C3)s1
Response given: -4.63

Challenge: Subsequent entry: Cn1ccc(C(=O)N2CCC3(CCC(=O)N(C4CCCC4)C3)CC2)n1
Response given: -6.19

Challenge: Subsequent entry: Cc1[nH]n(C)c2nc(=O)cc(C(F)(F)C(F)(F)F)c1-2
Response given: -2.22

Challenge: Subsequent entry: COCc1nnc(C(=O)N(C)Cc2ccc(OC)cc2)o1
Response given: -0.164

Next item in the queue.
Challenge: Suppose we examine the compound C[C@]1(O)CCN(Cc2cncs2)C[C@@H]1Oc1cccc(F)c1 ; what cytotoxicity at 10 µM value has been reported?
Response given: 6.06
